Below, each of the compounds is paired with its reported pEC50 value.
target: Stimulator of interferon genes protein (Mus musculus); assay: Agonist activity at STING in mouse RAW-Lucia ISG cells harbouring SEAP reporter gene assessed as activation of cGAS-STING signaling pathway incubated for 24 hrs by QUANTI-Blue reagent based analysis
Sequence (Q3TBT3 whole entry): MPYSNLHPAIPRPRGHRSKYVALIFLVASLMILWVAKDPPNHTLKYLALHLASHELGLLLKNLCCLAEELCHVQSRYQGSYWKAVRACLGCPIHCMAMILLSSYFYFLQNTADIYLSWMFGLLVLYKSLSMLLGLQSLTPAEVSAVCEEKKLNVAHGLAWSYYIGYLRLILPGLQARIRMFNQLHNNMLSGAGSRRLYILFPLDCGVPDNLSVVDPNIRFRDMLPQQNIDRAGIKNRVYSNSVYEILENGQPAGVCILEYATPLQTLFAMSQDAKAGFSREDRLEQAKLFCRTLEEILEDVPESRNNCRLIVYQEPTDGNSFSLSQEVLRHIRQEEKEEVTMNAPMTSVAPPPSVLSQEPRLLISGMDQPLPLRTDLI
To interpret pEC50, take it as minus log10 of a concentration measured in moles per litre.

{"smi": "O=C(Nc1cc(Br)c(F)cc1C(=O)O)c1ccc(-n2cnc(F)c2)nn1", "pEC50": 4.61}

Then this compound:
// recorded pEC50 for O=C(Nc1cc(Cl)c(F)cc1C(=O)O)c1ccc(-n2cnc(F)c2)nn1 : 4.33

Provenance of the data: ChEMBL document CHEMBL6177999
